- ASSAYED SYSTEM: leukocyte function-associated antigen-1 (LFA-1) αL I domain (Homo sapiens, UniProt P20701)
- Construct: αL I domain wild type, residues 128-307 of the integrin αL subunit
- Sequence (P20701 153-332): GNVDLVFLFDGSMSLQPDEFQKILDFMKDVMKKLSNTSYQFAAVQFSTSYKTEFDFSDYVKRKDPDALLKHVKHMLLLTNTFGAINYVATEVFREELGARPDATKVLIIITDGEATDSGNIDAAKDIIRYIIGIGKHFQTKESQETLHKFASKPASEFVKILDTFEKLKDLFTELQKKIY
- ASSAY NOTES: 1-aminoanthracene fluorescence displacement; supported by cell-based ICAM-1 binding inhibition
VALUE KIND: pKd
The value called pKd is obtained by taking minus log10 of the concentration in mol/L.

Q: Report pKd for FC(F)OC(Cl)C(F)(F)F (stereo not shown) [S-isoflurane]
Result: 3.43
